- SUBJECT OF TEST: hS1a (human betaine/GABA transporter, hBGT) (Homo sapiens)
- Sequence (P48065 whole entry C10Y): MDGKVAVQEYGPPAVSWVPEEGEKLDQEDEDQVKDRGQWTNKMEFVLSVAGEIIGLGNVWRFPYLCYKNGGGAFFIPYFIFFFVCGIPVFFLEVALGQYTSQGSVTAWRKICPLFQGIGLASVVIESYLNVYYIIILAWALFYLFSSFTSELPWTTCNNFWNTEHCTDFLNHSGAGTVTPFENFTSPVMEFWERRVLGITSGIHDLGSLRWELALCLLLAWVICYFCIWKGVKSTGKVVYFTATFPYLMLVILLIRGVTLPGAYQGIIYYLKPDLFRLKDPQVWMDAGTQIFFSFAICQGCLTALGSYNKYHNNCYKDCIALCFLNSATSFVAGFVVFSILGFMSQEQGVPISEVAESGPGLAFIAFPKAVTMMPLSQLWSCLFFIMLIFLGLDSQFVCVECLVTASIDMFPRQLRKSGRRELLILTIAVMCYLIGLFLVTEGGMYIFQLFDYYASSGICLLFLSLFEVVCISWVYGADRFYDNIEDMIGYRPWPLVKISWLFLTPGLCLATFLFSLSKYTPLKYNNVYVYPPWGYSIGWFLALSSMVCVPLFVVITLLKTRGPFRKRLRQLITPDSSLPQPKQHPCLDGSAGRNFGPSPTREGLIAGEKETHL
- ASSAY REMARKS: Inhibition of specific [^3 H]GABA uptake in COS7 (transient) or LMtk- (stable; hS1a-3) cells expressing hS1a
- Type: cell-based
- Design: Translation of a long open reading frame predicts a protein of 614 amino acids with 12 putative transmembrane domains; expressed in transfected cells
- MEASUREMENT SETUP: estimated from data for one or two concentrations of inhibitor (Table 1); not corrected for [^3 H]GABA concentration; read-out: IC50 (human)
The reader will find reported IC50 values listed item by item below.
READOUT KIND: IC50 (µM)

compound="O=C(CCc1ccc(O)cc1)c1c(O)cc(O)cc1O [phloretin]" units_of_measure=µM recorded_result=258
compound="O=C(O)C1=CCCNC1 [guvacine]" units_of_measure=µM recorded_result=1900

The values you see were collected from patent US5712148A.
